Values from patent US20190092846A1

testedTarget: T1, human TGF-β3 (human, UniProt P10600 301-412)
T1 construct: also called hTGF-b3; hTGFbeta-3
T1 sequence: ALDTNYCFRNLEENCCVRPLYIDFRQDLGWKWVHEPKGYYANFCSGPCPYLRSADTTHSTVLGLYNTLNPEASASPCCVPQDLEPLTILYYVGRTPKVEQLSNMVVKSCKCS
measurementProtocol: BiaCORE (surface plasmon resonance)
Below is a list of entries, each paired with its recorded Kd value.

# binder, Kd
measured = [
    ("MOR14809 (antibody, human IgG1, lambda, V domains shown) VH: QVQLVQSGAEVKKPGESLKISCKGSGYSFTRYWIAWVRQMPGKGLEWMGIIDPGTSDTRYSPSFQGQVTISADKSISTAYLQWSSLKASDTAMYYCARIDKSLILHSAFDYWGQGTLVTVSS VL: SYELTQPLSVSVALGQTARITCSGDNLGGYYAYWYQQKPGQAPVLVIYETNNRPSGIPERFSGSNSGNTATLTISRAQAGDEADYYCASTTQDYLVFVFGGGTKLTVLG", "> 1000 nM"),
]

Q. Consider the binder MOR14805 (antibody, human IgG1, lambda, V domains shown) VH: QVQLVQSGAEVKKPGESLKISCKGSGYSFTRYYVAWVRQMPGKGLEWMGWIDPGTSNTRYSPSFQGQVTISADKSISTAYLQWSSLKASDTAMYYCARMLAWGWFDYWGQGTLVTVSS VL: SYELTQPLSVSVALGQTARITCSGDNLGGYYAHWYQQKPGQAPVLVIYDKSDRPSGIPERFSGSNSGNTATLTISRAQAGDEADYYCASYDSSLMMVFGGGTKLTVLG and give its measured Kd.
A. 0.0705 nM

Q. Consider the binder MOR14787 (antibody, human IgG1, kappa, V domains shown) VH: QVQLVQSGAEVKKPGSSVKVSCKASGGTFSSYAISWVRQAPGQGLEWMGVIVPKWGHPQYAQKFQGRVTITADESTSTAYMELSSLRSEDTAVYYCAREGDFVVLVLTEHYMGGFDVWGQGTLVTVSS VL: DIQMTQSPSSLSASVGDRVTITCRASQSIDEYLNWYQQKPGKAPKLLIYAGSNLQSGVPSRFSGSGSGTDFTLTISSLQPEDFATYYCLQGYSYPRTFGQGTKVEIKR and give its measured Kd.
A. > 1000 nM
